biological target: recombinant human NK3 receptor (Homo sapiens (Human), UniProt P29371); assay: biochemical; type: binding; details: [3H]SR142801, membranes of HEK293 cells transiently expressing recombinant human NK3 receptor; read-out: Data Ki (hNK-3 receptor affinity)
Sequence (P29371 whole entry): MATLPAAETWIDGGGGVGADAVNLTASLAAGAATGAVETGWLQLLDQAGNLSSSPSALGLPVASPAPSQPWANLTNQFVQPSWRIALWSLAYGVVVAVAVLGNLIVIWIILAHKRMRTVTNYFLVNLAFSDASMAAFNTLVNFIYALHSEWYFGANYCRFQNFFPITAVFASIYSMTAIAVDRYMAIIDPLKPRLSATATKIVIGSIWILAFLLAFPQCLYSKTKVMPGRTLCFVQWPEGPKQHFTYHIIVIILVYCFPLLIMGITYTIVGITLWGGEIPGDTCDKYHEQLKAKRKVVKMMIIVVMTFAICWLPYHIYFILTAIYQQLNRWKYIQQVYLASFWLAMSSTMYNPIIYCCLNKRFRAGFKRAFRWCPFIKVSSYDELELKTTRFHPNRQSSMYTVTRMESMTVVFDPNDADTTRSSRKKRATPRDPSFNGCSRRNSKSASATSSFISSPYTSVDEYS
Listing: pKi of selected compounds
// returns pKi (minus log10 of molar concentration), number only

Consider the reported pKi for these compounds:
> print(dat)
                                   compound  quantity.measured  quantitative.readout
1  CCN(C(=O)Oc1ccc(F)cc1)[C@@H]1CN(C(=O)C2CCN(c3ccc(C#N)nc3)CC2)C[C@H]1c1ccc(Cl)c(F)c1 [Example 43]                pKi                  9.52
2  CCN(C(=O)Oc1ccc(F)cc1)[C@@H]1CN(C(=O)C2CCN(C(=O)[C@@H]3CC(=O)N3)CC2)C[C@H]1c1ccc(Cl)cc1 [Example 121]                pKi                  7.77

Let's switch to this compound now.
Request: Value lookup for pKi; key = CC(C)N(C(=O)Oc1ccc(F)cc1)[C@@H]1CN(C(=O)C2CCN(c3cnc(C#N)cn3)CC2)C[C@H]1c1ccc(Cl)cc1 [Example 27]
Result: 7.33

====

Listing: pKi of selected compounds
target: recombinant human NK3 receptor (Homo sapiens (Human), UniProt P29371); assay: biochemical; type: binding; settings: [3H]SR142801, membranes of HEK293 cells transiently expressing recombinant human NK3 receptor; read-out: Data Ki (hNK-3 receptor affinity)
// returns pKi (minus log10 of molar concentration), number only

Consider the reported pKi for these compounds:
> print(dat)
                                   compound  quantity.measured  quantitative.readout
1  CCN(C(=O)Oc1ccc(F)cc1)[C@@H]1CN(C(=O)C2CCN(c3cnc(C#N)cn3)CC2)C[C@H]1c1ccc(F)c(F)c1 [Example 62]                pKi                  8.22
2  CCN(C(=O)Oc1ccc(F)cc1)[C@H]1CN(C(=O)C2CCN(c3ccc(C#N)cn3)CC2)C[C@@H]1c1ccc(Cl)cc1 [Example 22]                pKi                  7.60
3  CCN(C(=O)Oc1ccc(F)cc1)[C@@H]1CN(C(=O)C2CCN(c3ccc(F)cn3)CC2)C[C@H]1c1ccc(F)c(Cl)c1 [Example 117]                pKi                  8.48
4  CCN(C(=O)Oc1ccc(F)cc1)[C@@H]1CN(C(=O)C2CCN(c3cc(C#N)ccn3)CC2)C[C@H]1c1ccc(F)c(F)c1 [Example 53]                pKi                  7.80
5  N#Cc1ccc(N2CCC(C(=O)N3C[C@@H](N(C(=O)Oc4ccc(F)cc4)C4CC4)[C@H](c4ccc(Cl)cc4)C3)CC2)nc1 [Example 29]                pKi                  7.92

Let's switch to this compound now.
Request: Value lookup for pKi; key = CCN(C(=O)Oc1ccc(F)cc1)[C@@H]1CN(C(=O)C2CCN(C(=O)c3ccc(C(F)(F)F)cn3)CC2)C[C@H]1c1ccc(Cl)cc1 [Example 101]
Result: 7.37
